Attribution: PubChem BioAssay

Assay: blockers of RIG-like receptor reporter activation – cell-based, Sendai virus stimulus, luciferase, 10K MLSCN set, TLR/RLR signaling modifier project, primary screen (AID 602276);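 also: firefly luciferase from ISG56 promoter only with Renilla not read in this screen; 0% = Sendai virus plus DMSO and 100% = medium plus DMSO without virus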
Conditions: HEK293 RL24 IRF3 luciferase reporter, at 10 µM, stronger effect = higher value
Reported metric: inhibition (%)
Use % as the unit, but write only the number.

Solved entries (count: 5):
// inhibition lookup, key: `COc1ccc(CCNC(=O)C2CCN(S(=O)(=O)c3cc(OC)ccc3OC)CC2)cc1`
14.7

// inhibition lookup, key: `Cc1ccc2nc(-c3ccc4c(c3)OCCO4)cc(C(=O)O)c2c1`
-13.7

// inhibition lookup, key: `O=C(CCn1c(=O)oc2ccccc21)N1CCN(c2ccccc2Cl)CC1`
49.8

// inhibition lookup, key: `CCCNc1nc2c(c(=O)n(C)c(=O)n2C)n1Cc1cccc(C)c1`
3.02

// inhibition lookup, key: O=C(Nn1cnnc1)C1Cc2ccccc2CN1S(=O)(=O)c1ccc(F)cc1 (stereo not given)
14.1

Proceed to the following item.
// inhibition lookup, key: `Cc1cc(C(=O)NCCCN2CCN(C3CCCCC3)CC2)n(-c2ccccc2)n1`
-18.1

----------
This section presents compounds with their documented fluorescence slope values.
Biological target: Voltage-gated potassium channel subunit beta-2 (Rattus norvegicus)
Assay: inhibitors of rat Kvbeta2 reductase activity – biochemical, NADPH fluorescence, primary screen (AID 622);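 also: slope of raw intensity against log time taken from 70 to 1610 s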
Conditions: recombinant KvBeta, 4-cyanobenzaldehyde reduction, at 10 µM, stronger effect = higher value
Field format: numeric only.

Solved entries (count: 3):
// fluorescence slope lookup, key: `O=C(CSc1nnc(COc2ccc(Cl)cc2)o1)OC1CCCCC1`
-0.524

// fluorescence slope lookup, key: `O=C(Nc1ccc2snnc2c1)N1CCSCC1`
-0.371

// fluorescence slope lookup, key: `Cc1occc1-c1nnc(SCC(=O)N2CCc3ccccc32)o1`
-0.478

---
// fluorescence slope lookup, key: `COc1ccc(C)cc1NS(=O)(=O)c1ccc(NS(=O)(=O)c2ccc(NC(C)=O)cc2)cc1`
-0.514

// fluorescence slope lookup, key: `Cc1ccc2nc(-c3ccccn3)cc(C(=O)N3CCN(c4ncccn4)CC3)c2c1`
-0.346

// fluorescence slope lookup, key: O=C(CCN1C(=O)C2C3C=CC(C3)C2C1=O)NCCc1ccccc1Cl (stereo unspecified)
-0.498

// fluorescence slope lookup, key: COc1ccc(C2CC(c3cccc(C)c3)n3ncnc3N2)cc1 (stereo unspecified)
-0.569

// fluorescence slope lookup, key: `COC(=O)c1ccccc1NC(=O)N1CCCC1`
-0.434

----------
Experiment: blockers of RIG-like receptor reporter activation – cell-based, Sendai virus stimulus, luciferase, 10K MLSCN set, TLR/RLR signaling modifier project, primary screen (AID 602276);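 also: firefly luciferase from ISG56 promoter only with Renilla not read in this screen; 0% = Sendai virus plus DMSO and 100% = medium plus DMSO without virus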
Settings: HEK293 RL24 IRF3 luciferase reporter, at 10 µM, stronger effect = higher value
Reported metric: inhibition (%)
Use % as the unit, but write only the number.

Solved entries (count: 4):
// inhibition lookup, key: `COc1ccc(NC(=O)CSc2nnc(Cc3cccn3C)n2-c2ccc(F)cc2)cc1OC`
12.2

// inhibition lookup, key: `COc1cccc(N(C(C)=O)c2nc(C)cc(C)c2C#N)c1`
17.6

// inhibition lookup, key: `COc1ccccc1-n1c(-c2cccnc2)n[nH]c1=S`
-0.823

// inhibition lookup, key: O=C(CN1C(=O)CC(c2ccco2)Sc2ccccc21)Nc1ccccc1F (stereo not given)
12.5

Proceed to the following item.
// inhibition lookup, key: CCc1cccc(NC(=O)C2CCCN(S(=O)(=O)c3c(C)[nH]c(=O)[nH]c3=O)C2)c1 (stereo not given)
9.85
